system: P. falciparum FCR3; assay: Panel of P. falciparum strains: FCR3; assay type: cell-based; conditions: strain FCR3
# reported Pf IC50 Ratio vs Pf IC50 3D7, FCR3; entries follow

- Compound: "CCN(CC)CCCC(C)Nc1ccnc2cc(Cl)ccc12 (stereo not shown)"
  Inequality Operator: ">"
  Pf IC50 Ratio vs Pf IC50 3D7, FCR3: 7
- Compound: "Cc1[nH]c2sc3cc(-c4ccc(C(F)(F)F)cc4F)ccc3c2c(=O)c1Cl"
  Inequality Operator: "="
  Pf IC50 Ratio vs Pf IC50 3D7, FCR3: 1
- Compound: "C[C@H]1[C@@H](O)O[C@@H]2O[C@@]3(C)CC[C@H]4[C@H](C)CC[C@@H]1[C@@]24OO3 [Dihydroartemisinine]"
  Inequality Operator: "="
  Pf IC50 Ratio vs Pf IC50 3D7, FCR3: 1
- Compound: "C[C@H]1[C@H](OC(=O)CCC(=O)O)O[C@@H]2O[C@@]3(C)CC[C@H]4[C@H](C)CC[C@@H]1[C@@]24OO3 [Artesunate]"
  Inequality Operator: "="
  Pf IC50 Ratio vs Pf IC50 3D7, FCR3: 1
- Compound: "CCc1nc(N)nc(N)c1-c1ccc(Cl)cc1"
  Inequality Operator: "="
  Pf IC50 Ratio vs Pf IC50 3D7, FCR3: 3
- Compound: "O=C1C(O)=C([C@H]2CC[C@H](c3ccc(Cl)cc3)CC2)C(=O)c2ccccc21"
  Inequality Operator: ">"
  Pf IC50 Ratio vs Pf IC50 3D7, FCR3: 100
- Compound: "OC(c1cc(C(F)(F)F)nc2c(C(F)(F)F)cccc12)C1CCCCN1 (stereo not shown)"
  Inequality Operator: "="
  Pf IC50 Ratio vs Pf IC50 3D7, FCR3: 1

====

Entries and their measured Tox window selectivity index follow.
target: cytochrome bc1 of mitochondria isolated from human cells (HEK293) (Homo sapiens, UniProt P00156); construct: endogenous in cells; host or cells: HEK293 (isolated mitochondria); assay: Enzymatic bc1 inhibition, cytochrome c reductase activity, human mitochondria; type: biochemical; settings: human bc1 vs P. falciparum bc1
Endpoint Label: Tox window selectivity index

- Molecule: "Cc1[nH]c2sc3cc(-c4ccc(C(F)(F)F)cc4C(F)(F)F)ccc3c2c(=O)c1Cl [Example 5]"
  Recorded Number: 2200
- Molecule: "Cc1[nH]c2sc3cc(-c4cc(C(F)(F)F)ccc4F)ccc3c2c(=O)c1Cl [Example 3]"
  Recorded Number: 500
- Molecule: "Cc1[nH]c2sc3cc(-c4ccccc4OC(F)(F)F)ccc3c2c(=O)c1Cl [Example 4]"
  Recorded Number: 1625

====

target: cytochrome bc1 of mitochondria isolated from human cells (HEK293) (Homo sapiens, UniProt P00156); construct: endogenous in cells; assay: Enzymatic bc1 inhibition, cytochrome c reductase activity, human mitochondria; conditions: activity in the human target; read-out: Hbc1 IC50
pIC50: −log10 of the molar value.

- Compound: "Cc1[nH]c2sc3cc(-c4ccc(C(F)(F)F)cc4C(F)(F)F)ccc3c2c(=O)c1Cl [Example 5]"
  Inequality Operator: "="
  pIC50: 5.62
- Compound: "Cc1[nH]c2sc3cc(-c4ccccc4OC(F)(F)F)ccc3c2c(=O)c1Cl [Example 4]"
  Inequality Operator: "="
  pIC50: 5.81
- Compound: "Cc1[nH]c2sc3cc(-c4cc(C(F)(F)F)ccc4F)ccc3c2c(=O)c1Cl [Example 3]"
  Inequality Operator: "="
  pIC50: 5.82
- Compound: "Cc1[nH]c2sc3cc(-c4ccc(C(F)(F)F)cc4F)ccc3c2c(=O)c1Cl [Example 1]"
  Inequality Operator: "="
  pIC50: 5.48
- Compound: "Cc1[nH]c2sc3cc(-c4ccc(CN(C)C5CCN(Cc6ccc(OC(F)(F)F)cc6)CC5)cc4)ccc3c2c(=O)c1Cl [Example 7, 2,2,2-trifluoroacetate]"
  Inequality Operator: "<"
  pIC50: 5.00
- Compound: "Cc1[nH]c2sc3cc(-c4ccc(CO)cc4)ccc3c2c(=O)c1Cl [Example 6]"
  Inequality Operator: "="
  pIC50: 5.27

====

IC50 values, listed per item
system: P. falciparum 3D7A; test: Panel of P. falciparum strains: 3D7A; assay type: cell-based; conditions: Plasmodium falciparum; strain 3D7A; read-out: IC50 (mean μM ± SD) 3D7A

- Molecule: "Cc1[nH]c2sc3cc(-c4ccc(C(F)(F)F)cc4F)ccc3c2c(=O)c1Cl [Example 1]"
  IC50: "0.012 µM"
- Molecule: "C[C@H]1[C@@H](O)O[C@@H]2O[C@@]3(C)CC[C@H]4[C@H](C)CC[C@@H]1[C@@]24OO3 [Dihydroartemisinine]"
  IC50: "0.004 µM"
- Molecule: "OC(c1cc(C(F)(F)F)nc2c(C(F)(F)F)cccc12)C1CCCCN1 (centres unmarked) [Mefloquine]"
  IC50: "0.037 µM"
- Molecule: "CCc1nc(N)nc(N)c1-c1ccc(Cl)cc1 [Pyrimethamine]"
  IC50: "0.032 µM"
- Molecule: "O=C1C(O)=C([C@H]2CC[C@H](c3ccc(Cl)cc3)CC2)C(=O)c2ccccc21 [Atovaquone]"
  IC50: "0.001 µM"
